Taken from patent US20250026849A1.

Target: T1, P26 (human, UniProt P02771 381-609, limits assumed)
T1 construct: also called AFP p26
T1 sequence: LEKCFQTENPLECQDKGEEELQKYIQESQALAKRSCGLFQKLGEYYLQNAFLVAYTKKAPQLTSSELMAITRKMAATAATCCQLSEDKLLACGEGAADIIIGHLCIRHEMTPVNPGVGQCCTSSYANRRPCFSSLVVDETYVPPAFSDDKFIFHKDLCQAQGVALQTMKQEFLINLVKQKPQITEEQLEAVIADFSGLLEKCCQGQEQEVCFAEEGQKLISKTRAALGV
Assay: ELISA, format not described
Design: unit not given here
measuredEndpoint: ELISA_avg
API doc: respond with a numeric literal and nothing else, no unit.

Study these solved cases before continuing.
binder | ELISA_avg
D domain SEQ ID NO: 916 (designed binder) MGSWHEFWVRLEAIESRLFALGGSEAELAAFEKEIAAFESELQAYKGKGNPEVESLRVQAAHIRSWLQAYRHN | 26.9
D domain SEQ ID NO: 899 (designed binder) MGSWTEFYQRLDAIDTRLWALGGSEAELAAFEKEIAAFESELQAYKGKGNPEVEGLRQQAAQIRAWLQAYRHN | 29.7
D domain SEQ ID NO: 928 (designed binder) MGSWSIFKYHLADIKLLLEALGGSEAELAYFEFLIADFEFTLQDYKGKGNPEVEALRKEAAAIRDELQAYRHN | 20.2
D domain SEQ ID NO: 942 (designed binder) MGSWLLFKSELAWIKWYLEALGGSEAELAEFEWNIAEFEKNLQKYKGKGNPEVEALRKEAAAIRDELQAYRHN | 25.7

Read the next record carefully.
ELISA_avg for D domain SEQ ID NO: 975 (designed binder) MGSWSVFKDDLAQIKDRLEALGGSEAELAQFELDIAWFEYVLQFYKGKGNPEVEALRKEAAAIRDELQAYRHN ?
30.3
